Molecular target: Tfl-bZip (GCN4 bZip segment 226-281 with Tfl-GCN4-p1 dimerization domain) four d-position Leu of the GCN4-p1 zipper replaced by 5,5,5-trifluoroleucine (UniProt P03069)
Assay: EMSA
Conditions: densitometry of mobility shift
Reported metric: Kd (nM)

1. GTGGAGATGACTCATCTCCGG (double strand) [AP-1 site oligonucleotide]; 12.5
